- assay-summary: A2B permeability (Papp) in MDCK-MDR1 cell monolayers
- Type: in vitro ADME
- condition-context: dog, MDCK-MDR1 monolayer, apical to basolateral (A-B), 10 μM test compound, HBSS pH 7.4, duplicate
measured-quantity: Papp A→B at 60 min, 10 μM (nm/s)

Please review the entries below; each comes with its answer.
CCn1cc(C(=O)N2C3COCC2C3)c(=O)c2cc(OC3Cc4ccccc4C3)cnc21 [Example 16] :: 20.6
CCn1cc(C(=O)N2CCO[C@H](C)C2)c(=O)c2cc(OC3Cc4ccccc4C3)cnc21 [Example 2] :: 25.6
CCn1cc(C(=O)N2CCOCC2)c(=O)c2cc(OC3Cc4ccccc4C3)nnc21 [Example 52] :: 47.8
CCn1cc(C(=O)N2C3CCCC2COC3)c(=O)c2cc(OC3Cc4ccccc4C3)cnc21 [Example 20] :: 20.1
CCn1cc(C(=O)N2CCOCC2)c(=O)c2cc(OC3Cc4ccccc4C3)ncc21 [Example 26] :: 15.6
CCn1cc(C(=O)N2C[C@@H](C)O[C@H](C)C2)c(=O)c2cc(OC3Cc4ccccc4C3)cnc21 [Example 7] :: 17.9
CCn1cc(C(=O)N2C3CCC2COC3)c(=O)c2cc(OC3Cc4ccccc4C3)cnc21 [Example 18] :: 14.1
CCn1cc(C(=O)N2CC(C)(C)OC(C)(C)C2)c(=O)c2cc(OC3Cc4ccccc4C3)cnc21 [Example 8] :: 26.5
CCn1cc(C(=O)N2CCOCC2)c(=O)c2cc(OC3Cc4ccccc4C3)cnc21 [Example 1] :: 21.9
CCn1cc(C(=O)N2C[C@H]3C[C@@H]2CO3)c(=O)c2cc(OC3Cc4ccccc4C3)cnc21 [Example 17] :: 8.7

(I) CCn1cc(C(=O)N2[C@H](C)COC[C@@H]2C)c(=O)c2cc(OC3Cc4ccccc4C3)cnc21 [Example 10]
(II) CCn1cc(C(=O)N2CC3COCC(C3)C2)c(=O)c2cc(OC3Cc4ccccc4C3)nnc21 [Example 65]
(III) CCn1cc(C(=O)N2C[C@@H](C)O[C@@H](C)C2)c(=O)c2cc(OC3Cc4ccccc4C3)cnc21 [Example 5]
Task: Provide the items ranked by increasing Papp A→B at 60 min, 10 μM. Your reply should list the labels following the order given in the request.
Output: II, I, III
(II: 9.8 nm/s, I: 19.9 nm/s, III: 34.1 nm/s)

###

- assay-summary: A2B permeability (Papp) in MDCK-MDR1 cell monolayers
- Format: in vitro ADME
- condition-context: dog, MDCK-MDR1 monolayer, apical to basolateral (A-B), 10 μM test compound, HBSS pH 7.4, duplicate
measured-quantity: Papp A→B at 60 min, 10 μM (×10⁻⁶ cm/s)

CCn1cc(C(=O)N2CC3CCC(C2)O3)c(=O)c2cc(OC3Cc4ccccc4C3)cnc21 :: 1.79
CCn1cc(C(=O)N2C[C@H](C)O[C@@H](C)C2)c(=O)c2cc(OC3Cc4ccccc4C3)cnc21 :: 1.7
CCn1cc(C(=O)N2CC3(CCOCC3)C2)c(=O)c2cc(OC3Cc4ccccc4C3)cnc21 :: 1.24
